Measured z-score, listed per entry.
test name: CREB reporter modulators under forskolin, primary screen, cell-based, PC12, CRE-LacZ reporter, forskolin-stimulated (AID 1146);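 further: PC12 cells with 6xCRE LacZ reporter stimulated by forskolin 10 µM; beta-galactosidase reporter signal reflecting CREB driven transcription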
conditions used: luminescence, 4.5 h, higher = more signal, called active from +8 up or from −8 down
measurement type: z-score

compound="COC(=O)C1(CC(C)C)C=C2C(=C(C)C(=O)C2C)CN1 (configuration not stated)" assay_value=2.32
compound=CCOC(=O)C=C1C[C@@H](c2cccc([N+](=O)[O-])c2)O[C@@H](c2cccc([N+](=O)[O-])c2)O1 assay_value=-0.495
compound="COc1ccc(NN2C(C(O)c3ccc(F)cc3)C=CC3C(=O)N(C4CCCCC4)C(=O)C32)cc1 (configuration not stated)" assay_value=1.08
compound=CC[C@@H]1C=C(C(=O)O)[C@H](c2cccc(Cl)c2)N1S(=O)(=O)c1ccc(C)cc1 assay_value=-0.166
compound=Cc1ccc(S[C@]2(C(=O)NC3CC3)CC(=O)N(C3Cc4ccccc4C3)[C@@H]2c2ccc(CO)cc2I)cc1 assay_value=2.86
compound=COc1ccc(CCNC(=O)[C@@]2(c3ccc([N+](=O)[O-])cc3)CC(=O)N(C3CCCCC3)[C@@H]2c2ccc(CO)cc2I)cc1 assay_value=0.0398
compound=C=CCNC(=O)[C@@H]1[C@H]2C(=O)O[C@H](c3ccccc3)[C@H](c3ccccc3)N2[C@H](c2ccc(O)cc2)[C@@]12C(=O)N(C(=O)OCCOC)c1ccc(C#CCC(C(=O)OC)C(=O)OC)cc12 assay_value=0.416

====

test name: binders from COS7 lysate, DM2A8 probe, primary screen, torsin A project, cell lysate, small-molecule microarray, fluorescence 635/667 (AID 1065)
conditions used: higher = more signal, COS7 lysate expressing mutant human TOR1A
measurement type: composite z-score

compound="C=C(C)C1CN([C@H](CO)c2ccccc2)C(=O)/C1=C\\c1ccccc1 (some centres undefined)" assay_value=0.188
compound=COC(=O)Cn1c(C(=O)N(C)C)cc2c1C[C@H]1CN(C(=O)c3ccccc3)[C@@](Cc3ccccc3)(C(=O)OC)[C@@H]21 assay_value=-0.365
compound=C=CCNC(=O)[C@@H]1[C@H]2C(=O)O[C@H](c3ccccc3)[C@H](c3ccccc3)N2[C@H](c2ccc(O)cc2)[C@@]12C(=O)N(C(=O)OCCOC)c1ccc(C#CCC(C(=O)OC)C(=O)OC)cc12 assay_value=1.27
compound=C=CC[C@]1(C(N)=O)N=C(c2ccc(OCCCO)cc2)O[C@H]1c1ccccc1N=[N+]=[N-] assay_value=-0.385

====

Measured composite z-score, listed per entry.
test target: Concanavalin-A (Canavalia ensiformis)
test name: ConA small-molecule binders, primary screen, artefact control for SMM control protein annotation, biochemical, small-molecule microarray, Alexa647 label, 635 nm (AID 1127);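 further: z combines 667 nm emission intensity with signal-to-noise across three replicate slides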
conditions used: ConA-A647 binding fluorescence, higher = more signal
measurement type: composite z-score

compound="COC(=O)C1=CC(CCCO)=CC(c2ccc(CN3CCCC3)cc2)N(C)C=C1C(=O)OC (centres undefined)" test_target="Concanavalin-A (Canavalia ensiformis)" assay_value=0.361
compound=COc1ccc(CCNC(=O)[C@@H]2c3ccccc3C(=O)N(C(C)C)[C@H]2c2ccc(CO)cc2)cc1 test_target="Concanavalin-A (Canavalia ensiformis)" assay_value=-0.574
compound="COc1ccc(NN2C(C(O)c3ccc(F)cc3)C=CC3C(=O)N(C4CCCCC4)C(=O)C32)cc1 (centres undefined)" test_target="Concanavalin-A (Canavalia ensiformis)" assay_value=1.13
compound=CO[C@H]1O[C@H](CO)[C@@H](OC(=O)Nc2ccccc2)[C@@H]2OC(=O)[C@@H](Cc3ccccc3)C/C=C/C[C@H](Cc3ccccc3)C(=O)O[C@@H]12 test_target="Concanavalin-A (Canavalia ensiformis)" assay_value=-0.216

====

test name: inhibitors of hydroxyurea-induced Chk1 phosphorylation, primary screen, imaging, HeLa, phospho-Chk1 antibody, percent positive cells (AID 1186)
conditions used: hydroxyurea-induced phospho-Chk1 immunofluorescence imaging, higher = more signal
Measured z-score, listed per entry.
measurement type: z-score

molecule=COC(=O)c1c2oc(c1C(=O)OC)C(=O)N[C@H](Cc1ccccc1)Cn1cc(nn1)C1(CCCCC1)NC(=O)N[C@H](CO)CC2 assay_value=-0.0529
molecule=C=CCNC(=O)[C@@H]1[C@H]2C(=O)O[C@H](c3ccccc3)[C@H](c3ccccc3)N2[C@H](c2ccc(OCCO)cc2)[C@@]12C(=O)Nc1ccc(C#CC3=CCCCC3)cc12 assay_value=0.269
molecule=CC(C)N1C(=O)[C@@]2(Cc3ccccc31)c1ccccc1C(=O)N(Cc1ccccc1C(F)(F)F)[C@H]2c1ccc(CO)cc1 assay_value=0.0153

====

test name: inhibitors of hydroxyurea-induced Chk1 phosphorylation, primary screen, imaging, HeLa, phospho-Chk1 nuclear intensity (AID 1187); further: test concentration not given here
conditions used: hydroxyurea-induced phospho-Chk1 immunofluorescence imaging, higher = more signal
measurement type: z-score

compound="O=C1OCCC/C=C\\[C@H]2OC34C=CCN(Cc5ccccc5)C(=O)[C@H]3N(CCO)C(=O)[C@@H]4C12 (some centres undefined)" assay_value=-0.375
compound="CC(C)c1ccc(NN2C(C(O)C3=C[C@H]4C[C@@H](C3)C4(C)C)C=CC3C(=O)N(c4ccccc4)C(=O)C32)cc1 (some centres undefined)" assay_value=-0.257
compound=COC(=O)[C@@]1(Cc2ccc(F)cc2)[C@H]2c3cc(C(=O)N4CCCC4)n(Cc4ccc(OC(F)(F)F)cc4)c3C[C@H]2CN1C(=O)c1ccccc1 assay_value=0.639
compound="COc1cc(CO)cc(I)c1O[C@H]1C=C(C(=O)NCCO)C[C@@H](N(CCN2CCOCC2)C(=O)C2CCCO2)[C@@H]1O (some centres undefined)" assay_value=-0.723

====

test target: Epidermal growth factor receptor (Homo sapiens)
test name: EGFR binders on small-molecule microarrays, primary screen, biochemical, small-molecule microarray, 635 nm fluorescence (AID 1104);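 further: score merges 667 nm emission intensity with spot signal to noise over triplicate slides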
conditions used: EGFR binding, higher = more signal
Measured composite z-score, listed per entry.
measurement type: composite z-score

molecule=COc1ccc([Si](C)(C)[C@@H]2[C@@H](CC(=O)N(CCO)Cc3ccccc3)O[C@]3(C(=O)N(Cc4cccc(I)c4)c4ccccc43)[C@H]2C)cc1 test_target="Epidermal growth factor receptor (Homo sapiens)" measurement_type="composite z-score" assay_value=0.661
molecule=CCOC(=O)C[C@H]1[C@H](OC(=O)c2cc3ccccc3oc2=O)[C@@H](NC(=O)c2ccc(-c3ccccc3)cc2)c2cc(OCCCO)ccc2N1C(=O)Cc1ccc(OC)cc1 test_target="Epidermal growth factor receptor (Homo sapiens)" measurement_type="composite z-score" assay_value=0.419
molecule=COc1ccc([Si](C)(C)[C@H]2[C@H](CC(=O)N(CCO)Cc3ccccc3)O[C@@]3(C(=O)N(Cc4ccc(N5C(=O)c6cccc7cccc5c67)cc4)c4ccccc43)[C@@H]2C)cc1 test_target="Epidermal growth factor receptor (Homo sapiens)" measurement_type="composite z-score" assay_value=0.303
molecule="O=C1C2C=CC(C(O)C(c3ccccc3)c3ccccc3)N(Nc3ccccc3F)C2C(=O)N1c1ccccc1 (stereo not drawn)" test_target="Epidermal growth factor receptor (Homo sapiens)" measurement_type="composite z-score" assay_value=0.292
molecule=C=CCNC(=O)[C@@H]1[C@H]2C(=O)O[C@H](c3ccccc3)[C@H](c3ccccc3)N2[C@H](c2ccc(O)cc2)[C@@]12C(=O)Nc1ccc(C#CC3=CCCCC3)cc12 test_target="Epidermal growth factor receptor (Homo sapiens)" measurement_type="composite z-score" assay_value=0.494
molecule="CN1C(=O)C2CC=C(C3=CCO[C@@H]3[C@H]3CCCN3S(=O)(=O)c3ccccc3[N+](=O)[O-])CC2C1=O (stereo partly drawn)" test_target="Epidermal growth factor receptor (Homo sapiens)" measurement_type="composite z-score" assay_value=-0.141
molecule=C=CCOC(=O)[C@@H]1[C@H]2C(=O)O[C@H](c3ccccc3)[C@H](c3ccccc3)N2[C@H](c2ccc(OCCOC(=O)[C@@H]3C[C@@H]4C(=O)N[C@@H](CC(C)C)C(=O)N4[C@@H]3c3ccc(O)cc3)cc2)[C@@]12C(=O)Nc1ccc(I)cc12 test_target="Epidermal growth factor receptor (Homo sapiens)" measurement_type="composite z-score" assay_value=0.817
molecule=C=CCNC(=O)[C@@H]1[C@H]2C(=O)O[C@H](c3ccccc3)[C@H](c3ccccc3)N2[C@H](c2ccc(OCCO)cc2)[C@@]12C(=O)N(C(=O)OCCOC)c1ccccc12 test_target="Epidermal growth factor receptor (Homo sapiens)" measurement_type="composite z-score" assay_value=0.459
molecule=Cc1ccc(S[C@]2(C(=O)NCCN3CCOCC3)CC(=O)N(C(C)C)[C@@H]2c2ccc(CO)cc2I)cc1 test_target="Epidermal growth factor receptor (Homo sapiens)" measurement_type="composite z-score" assay_value=-1.19
molecule=COC(=O)[C@@]1(Cc2ccc(F)cc2)[C@H]2c3cc(C(=O)N4CCCC4)n(Cc4ccc(OC(F)(F)F)cc4)c3C[C@H]2CN1C(=O)c1ccccc1 test_target="Epidermal growth factor receptor (Homo sapiens)" measurement_type="composite z-score" assay_value=-0.564
molecule=CN(C)CCCC[C@@H]1NC(=O)[C@H]2C[C@@H](C(=O)NCCCCCCNC(=O)CS)[C@@H](c3cccc(OCCO)c3)N2C1=O test_target="Epidermal growth factor receptor (Homo sapiens)" measurement_type="composite z-score" assay_value=-0.166
molecule=C=C[C@H](C)[C@@H](OC(=O)Nc1ccc(SC)cc1)c1ccc(OCCO)cc1 test_target="Epidermal growth factor receptor (Homo sapiens)" measurement_type="composite z-score" assay_value=-0.359
molecule=Cc1ccc(S[C@]2(C(=O)NCc3ccccc3)CC(=O)N(Cc3ccccc3Cl)[C@@H]2c2ccc(CO)cc2)cc1 test_target="Epidermal growth factor receptor (Homo sapiens)" measurement_type="composite z-score" assay_value=-1.31
